Listing of entries alongside the reported Activity.
tested on: Human immunodeficiency virus 1; assay: Binding affinity to HLT-tagged HIV-1 Rev measured after overnight incubation by chemiluminescence analysis relative to IN 118-128; parameters: concentration or dose not given beside the values
Square brackets hold non-standard residues; d marks the D form. Peptide text beside a SMILES is read from it. NMeT = CN[C@H](C(=O)O)[C@@H](C)O; NMeS = CN[C@@H](CO)C(=O)O
Please state the figure in %; there is no need to write the unit.

compound	tested.on	result.units	Activity
CC(C)[C@H](NC(=O)[C@H]([C@@H](C)O)N(C)C(=O)[C@@H](NC(=O)[C@H](CO)NC(=O)[C@@H](NC(=O)[C@H](Cc1ccccc1)NC(=O)[C@H](CC(N)=O)NC(=O)[C@H](CO)NC(=O)CN)[C@@H](C)O)[C@@H](C)O)C(=O)N[C@@H](CCCCN)C(=O)N[C@@H](C)C(=O)O (H-GSNFTST[NMeT]VKA-OH)	Human immunodeficiency virus 1	%	168

Request body: readout Activity, system Human immunodeficiency virus 1, query CC(C)[C@H](NC(=O)[C@@H](NC(=O)[C@@H](NC(=O)[C@H](CO)NC(=O)[C@@H](NC(=O)[C@H](Cc1ccccc1)NC(=O)[C@H](CC(N)=O)NC(=O)[C@H](CO)N(C)C(=O)CN)[C@@H](C)O)[C@@H](C)O)[C@@H](C)O)C(=O)N[C@@H](CCCCN)C(=O)N[C@@H](C)C(=O)O (H-G[NMeS]NFTSTTVKA-OH) . Return the value.
293

====

tested on: Human immunodeficiency virus 1; assay: Binding affinity to HLT-tagged HIV-1 Rev measured after overnight incubation by chemiluminescence analysis relative to IN 118-128; set-up: concentration or dose not given beside the values
Square brackets hold non-standard residues; d marks the D form. Peptide text beside a SMILES is read from it. NMeK = CN[C@@H](CCCCN)C(=O)O
readout.kind: Activity
# output: number + unit

Consider the worked cases shown below.
compound	readout.kind	measurement
CC(C)[C@@H](NC(=O)[C@@H](NC(=O)[C@@H](NC(=O)[C@H](CO)NC(=O)[C@@H](NC(=O)[C@H](Cc1ccccc1)NC(=O)[C@H](CC(N)=O)NC(=O)[C@H](CO)NC(=O)CN)[C@@H](C)O)[C@@H](C)O)[C@@H](C)O)C(=O)N[C@@H](CCCCN)C(=O)N[C@@H](C)C(=O)O	Activity	107%
CC(C)[C@H](NC(=O)[C@@H](NC(=O)[C@@H](NC(=O)[C@@H](N)CO)[C@@H](C)O)[C@@H](C)O)C(=O)N[C@@H](CCCCN)C(=O)N[C@@H](C)C(=O)O (H-STTVKA-OH)	Activity	187%
CC(C)[C@H](NC(=O)[C@@H](NC(=O)[C@@H](NC(=O)[C@H](C)NC(=O)[C@@H](NC(=O)[C@H](Cc1ccccc1)NC(=O)[C@H](CC(N)=O)NC(=O)[C@H](CO)NC(=O)CN)[C@@H](C)O)[C@@H](C)O)[C@@H](C)O)C(=O)N[C@@H](CCCCN)C(=O)N[C@@H](C)C(=O)O (H-GSNFTATTVKA-OH)	Activity	182%
CC(C)[C@H](NC(=O)[C@H](NC(=O)[C@@H](NC(=O)[C@H](CO)NC(=O)[C@@H](NC(=O)[C@H](Cc1ccccc1)NC(=O)[C@H](CC(N)=O)NC(=O)[C@H](CO)NC(=O)CN)[C@@H](C)O)[C@@H](C)O)[C@@H](C)O)C(=O)N[C@@H](CCCCN)C(=O)N[C@@H](C)C(=O)O	Activity	60%
CC(C)[C@H](NC(=O)[C@H](C)NC(=O)[C@@H](NC(=O)[C@H](CO)NC(=O)[C@@H](NC(=O)[C@H](Cc1ccccc1)NC(=O)[C@H](CC(N)=O)NC(=O)[C@H](CO)NC(=O)CN)[C@@H](C)O)[C@@H](C)O)C(=O)N[C@@H](CCCCN)C(=O)N[C@@H](C)C(=O)O (H-GSNFTSTAVKA-OH)	Activity	124%

Look up Activity for this compound: CC(C)[C@H](NC(=O)[C@@H](NC(=O)[C@@H](NC(=O)[C@H](CO)NC(=O)[C@@H](NC(=O)[C@H](Cc1ccccc1)NC(=O)[C@H](CC(N)=O)NC(=O)[C@H](CO)NC(=O)CN)[C@@H](C)O)[C@@H](C)O)[C@@H](C)O)C(=O)O (H-GSNFTSTTV-OH)
0%

Look up Activity for this compound: CC(C)[C@H](NC(=O)[C@@H](NC(=O)[C@@H](NC(=O)[C@H](CO)NC(=O)[C@@H](NC(=O)[C@H](Cc1ccccc1)NC(=O)[C@H](CC(N)=O)NC(=O)[C@H](CO)NC(=O)CN)[C@@H](C)O)[C@@H](C)O)[C@@H](C)O)C(=O)N(C)[C@@H](CCCCN)C(=O)N[C@@H](C)C(=O)O (H-GSNFTSTTV[NMeK]A-OH)
191%

====

test system: Human immunodeficiency virus 1; test: Binding affinity to HLT-tagged HIV-1 Rev measured after overnight incubation by chemiluminescence analysis relative to IN 118-128; set-up: concentration or dose not given beside the values
Peptide text beside a SMILES is read from it.
readout.kind: Activity (%)
Please state the figure in %; there is no need to write the unit.

Consider the worked cases shown below.
compound	result.units	Activity
CC(C)[C@H](NC(=O)[C@@H](NC(=O)[C@H](NC(=O)[C@H](CO)NC(=O)[C@@H](NC(=O)[C@H](Cc1ccccc1)NC(=O)[C@H](CC(N)=O)NC(=O)[C@H](CO)NC(=O)CN)[C@@H](C)O)[C@@H](C)O)[C@@H](C)O)C(=O)N[C@@H](CCCCN)C(=O)N[C@@H](C)C(=O)O	%	176
CC(C)[C@H](NC(=O)[C@@H](NC(=O)[C@@H](NC(=O)[C@H](CO)NC(=O)[C@@H](NC(=O)[C@H](Cc1ccccc1)NC(=O)[C@H](CC(N)=O)NC(=O)[C@H](CO)NC(=O)CN)[C@@H](C)O)[C@@H](C)O)[C@@H](C)O)C(=O)N[C@H](CCCCN)C(=O)N[C@@H](C)C(=O)O	%	53

Let us move to another entry and its Activity.
Look up Activity for this compound: CC(C)[C@H](NC(=O)[C@@H](NC(=O)[C@@H](NC(=O)[C@H](CO)NC(=O)[C@H](C)NC(=O)[C@H](Cc1ccccc1)NC(=O)[C@H](CC(N)=O)NC(=O)[C@H](CO)NC(=O)CN)[C@@H](C)O)[C@@H](C)O)C(=O)N[C@@H](CCCCN)C(=O)N[C@@H](C)C(=O)O (H-GSNFASTTVKA-OH)
120

====

target: Human immunodeficiency virus type 1 integrase (Human immunodeficiency virus 1); assay: Binding affinity to HIV-1 integrase measured after overnight incubation by chemiluminescence analysis relative to IN 118-128; parameters: concentration or dose not given beside the values
Peptide text beside a SMILES is read from it.
Listing of entries alongside the reported Activity.
Please state the figure in %; there is no need to write the unit.

molecule	measurement
CC(C)[C@H](NC(=O)[C@@H](NC(=O)[C@@H](NC(=O)[C@H](CO)NC(=O)[C@@H](NC(=O)[C@H](Cc1ccccc1)NC(=O)[C@H](CC(N)=O)NC(=O)[C@H](CO)NC(=O)CN)[C@@H](C)O)[C@@H](C)O)[C@@H](C)O)C(=O)N[C@@H](CCCCN)C(=O)N[C@H](C)C(=O)O	136
CC(C)[C@H](NC(=O)[C@@H](NC(=O)[C@@H](NC(=O)[C@@H](N)CO)[C@@H](C)O)[C@@H](C)O)C(=O)N[C@@H](CCCCN)C(=O)N[C@@H](C)C(=O)O (H-STTVKA-OH)	144

Look up Activity for this molecule: CC(C)[C@H](NC(=O)[C@@H](NC(=O)[C@@H](NC(=O)[C@H](CO)NC(=O)[C@@H](NC(=O)[C@H](C)NC(=O)[C@H](CC(N)=O)NC(=O)[C@H](CO)NC(=O)CN)[C@@H](C)O)[C@@H](C)O)[C@@H](C)O)C(=O)N[C@@H](CCCCN)C(=O)N[C@@H](C)C(=O)O (H-GSNATSTTVKA-OH)
133

Look up Activity for this molecule: CC(C)[C@H](NC(=O)[C@@H](NC(=O)[C@@H](NC(=O)[C@H](CO)NC(=O)[C@@H](NC(=O)[C@@H](N)Cc1ccccc1)[C@@H](C)O)[C@@H](C)O)[C@@H](C)O)C(=O)N[C@@H](CCCCN)C(=O)N[C@@H](C)C(=O)O (H-FTSTTVKA-OH)
236

====

molecular target: Human immunodeficiency virus type 1 integrase (Human immunodeficiency virus 1); experiment: Binding affinity to HIV-1 integrase measured after overnight incubation by chemiluminescence analysis relative to IN 174-188; set-up: concentration or dose not given beside the values
Square brackets hold non-standard residues; d marks the D form. Peptide text beside a SMILES is read from it. NMeV = CN[C@H](C(=O)O)C(C)C
readout.kind: Activity (%)
Please state the figure in %; there is no need to write the unit.

Consider the worked cases shown below.
molecule	Activity (%)
CC[C@H](C)[C@H](NC(=O)[C@H](Cc1ccccc1)NC(=O)[C@@H](NC(=O)[C@H](C)NC(=O)[C@H](CCSC)NC(=O)[C@H](CCC(N)=O)NC(=O)[C@H](NC(=O)[C@H](C)NC(=O)[C@@H](N)[C@@H](C)O)C(C)C)C(C)C)C(=O)N[C@@H](Cc1cnc[nH]1)C(=O)N[C@@H](CC(N)=O)C(=O)N[C@@H](Cc1ccccc1)C(=O)N[C@@H](CCCCN)C(=O)N[C@@H](CCCNC(=N)N)C(=O)N[C@@H](CCCCN)C(=O)O	115
CC[C@H](C)[C@H](NC(=O)[C@H](Cc1ccccc1)NC(=O)[C@@H](NC(=O)[C@H](C)NC(=O)[C@H](CCSC)NC(=O)[C@H](CCC(N)=O)NC(=O)[C@@H](NC(=O)[C@H](C)NC(=O)[C@@H](N)[C@@H](C)O)C(C)C)C(C)C)C(=O)N[C@@H](Cc1cnc[nH]1)C(=O)N[C@@H](CC(N)=O)C(=O)N[C@@H](Cc1ccccc1)C(=O)N[C@@H](CCCCN)C(=O)N[C@@H](CCCNC(=N)N)C(=O)N[C@@H](C)C(=O)O (H-TAVQMAVFIHNFKRA-OH)	109
CC[C@H](C)[C@H](NC(=O)[C@H](Cc1ccccc1)NC(=O)[C@H](C(C)C)N(C)C(=O)[C@H](C)NC(=O)[C@H](CCSC)NC(=O)[C@H](CCC(N)=O)NC(=O)[C@@H](NC(=O)[C@H](C)NC(=O)[C@@H](N)[C@@H](C)O)C(C)C)C(=O)N[C@@H](Cc1cnc[nH]1)C(=O)N[C@@H](CC(N)=O)C(=O)N[C@@H](Cc1ccccc1)C(=O)N[C@@H](CCCCN)C(=O)N[C@@H](CCCNC(=N)N)C(=O)N[C@@H](CCCCN)C(=O)O (H-TAVQMA[NMeV]FIHNFKRK-OH)	67
CC[C@H](C)[C@H](NC(=O)[C@H](Cc1ccccc1)NC(=O)[C@@H](NC(=O)[C@H](C)NC(=O)[C@H](CCSC)NC(=O)[C@H](CCC(N)=O)NC(=O)[C@H](C(C)C)N(C)C(=O)[C@H](C)NC(=O)[C@@H](N)[C@@H](C)O)C(C)C)C(=O)N[C@@H](Cc1cnc[nH]1)C(=O)N[C@@H](CC(N)=O)C(=O)N[C@@H](Cc1ccccc1)C(=O)N[C@@H](CCCCN)C(=O)N[C@@H](CCCNC(=N)N)C(=O)N[C@@H](CCCCN)C(=O)O (H-TA[NMeV]QMAVFIHNFKRK-OH)	118

Look up Activity for this molecule: CC[C@H](C)[C@H](NC(=O)[C@H](Cc1ccccc1)NC(=O)[C@@H](NC(=O)[C@H](C)NC(=O)[C@H](CCSC)NC(=O)[C@H](CCC(N)=O)NC(=O)[C@@H](NC(=O)[C@H](C)NC(=O)[C@@H](N)[C@@H](C)O)C(C)C)C(C)C)C(=O)N[C@@H](Cc1cnc[nH]1)C(=O)N[C@@H](CC(N)=O)C(=O)N[C@@H](Cc1ccccc1)C(=O)N[C@@H](CCCCN)C(=O)O (H-TAVQMAVFIHNFK-OH)
120
